Listing: pEC50 of selected molecules
Molecular target: KATP channels (Homo sapiens, UniProt O60706+Q14654)
Construct: TE671 human medulloblastoma cells were obtained from ATCC
Sequence (O60706 1-1549 isoform O60706-2): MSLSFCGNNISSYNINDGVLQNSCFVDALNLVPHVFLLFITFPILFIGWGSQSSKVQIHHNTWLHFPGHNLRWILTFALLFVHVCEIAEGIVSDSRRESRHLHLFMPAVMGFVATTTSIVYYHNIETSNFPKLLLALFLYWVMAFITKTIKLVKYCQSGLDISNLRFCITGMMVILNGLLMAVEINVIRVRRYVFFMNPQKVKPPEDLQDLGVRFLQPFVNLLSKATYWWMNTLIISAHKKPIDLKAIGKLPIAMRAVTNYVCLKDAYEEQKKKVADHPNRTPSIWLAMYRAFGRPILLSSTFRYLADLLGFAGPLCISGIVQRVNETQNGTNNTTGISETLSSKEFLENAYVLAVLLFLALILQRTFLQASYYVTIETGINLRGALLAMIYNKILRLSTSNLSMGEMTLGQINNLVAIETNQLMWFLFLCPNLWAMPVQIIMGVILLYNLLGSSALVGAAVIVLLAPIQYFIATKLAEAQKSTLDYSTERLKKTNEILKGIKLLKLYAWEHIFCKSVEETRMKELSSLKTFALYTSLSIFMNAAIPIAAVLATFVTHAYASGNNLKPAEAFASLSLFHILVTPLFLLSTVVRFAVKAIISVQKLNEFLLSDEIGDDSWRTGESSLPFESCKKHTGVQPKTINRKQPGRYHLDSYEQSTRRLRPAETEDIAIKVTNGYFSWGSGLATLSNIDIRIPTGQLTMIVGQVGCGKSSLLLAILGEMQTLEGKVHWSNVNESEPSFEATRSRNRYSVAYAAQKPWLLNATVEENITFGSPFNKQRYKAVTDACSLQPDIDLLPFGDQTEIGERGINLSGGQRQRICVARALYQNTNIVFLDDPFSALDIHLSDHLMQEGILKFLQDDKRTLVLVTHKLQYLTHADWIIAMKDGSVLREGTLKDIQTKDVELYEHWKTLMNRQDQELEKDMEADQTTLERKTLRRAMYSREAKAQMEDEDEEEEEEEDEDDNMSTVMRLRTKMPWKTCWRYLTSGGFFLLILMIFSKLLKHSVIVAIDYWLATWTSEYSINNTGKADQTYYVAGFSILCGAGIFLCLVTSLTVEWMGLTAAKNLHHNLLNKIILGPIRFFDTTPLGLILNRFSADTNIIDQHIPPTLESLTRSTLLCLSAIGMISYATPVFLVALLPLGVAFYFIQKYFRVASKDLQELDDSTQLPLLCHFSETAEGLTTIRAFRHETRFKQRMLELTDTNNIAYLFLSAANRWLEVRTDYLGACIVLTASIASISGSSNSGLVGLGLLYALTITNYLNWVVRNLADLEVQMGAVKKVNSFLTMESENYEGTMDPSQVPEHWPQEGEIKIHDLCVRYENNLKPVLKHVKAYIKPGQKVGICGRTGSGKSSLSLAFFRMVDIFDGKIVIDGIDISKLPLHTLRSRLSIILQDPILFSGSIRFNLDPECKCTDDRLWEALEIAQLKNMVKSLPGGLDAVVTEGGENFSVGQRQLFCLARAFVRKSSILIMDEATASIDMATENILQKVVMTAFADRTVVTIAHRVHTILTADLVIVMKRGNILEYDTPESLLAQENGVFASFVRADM
Sequence (Q14654 whole entry): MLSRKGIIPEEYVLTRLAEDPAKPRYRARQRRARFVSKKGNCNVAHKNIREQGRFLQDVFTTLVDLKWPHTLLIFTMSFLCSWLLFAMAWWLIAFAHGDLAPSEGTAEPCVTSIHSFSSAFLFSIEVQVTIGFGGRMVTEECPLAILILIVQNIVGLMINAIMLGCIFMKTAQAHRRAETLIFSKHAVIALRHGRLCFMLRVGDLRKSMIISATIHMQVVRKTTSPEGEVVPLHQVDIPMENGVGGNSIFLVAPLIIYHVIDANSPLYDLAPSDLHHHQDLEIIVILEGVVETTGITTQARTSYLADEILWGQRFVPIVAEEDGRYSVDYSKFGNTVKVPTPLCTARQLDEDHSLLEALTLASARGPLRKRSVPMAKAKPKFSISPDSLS
Test: Potassium Channel Assay (FLIPR membrane potential, TE671 cells)
Details: TE671 human medulloblastoma cells, Membrane Potential Assay Dye, room temperature, hyperpolarization from KATP channel opening
pEC50: −log10 of the molar value.
measurement-label: pEC50

                                    molecule  measurement_label  value_modifier  measured
 0  CC1(C)Oc2ccc(C#N)cc2[C@@H](Nc2nc(=O)c3cc(Cl)ccc3[nH]2)[C@@H]1O (racemic) [Compound 7]              pEC50               =      5.64
 1  COc1ccc(S(=O)(=O)c2ccc3c(c2)[C@@H](Oc2noc4cc(Cl)ccc24)[C@H](O)C(C)(C)O3)cc1              pEC50               <      4.52
 2  CC1(C)Oc2ccc(S(=O)(=O)c3ccc(Cl)cc3)cc2[C@@H](Oc2noc3cc(Cl)ccc23)[C@@H]1O              pEC50               <      4.52
 3  CC1(C)Oc2ccc(S(=O)(=O)c3ccccc3)cc2[C@@H](n2oc3cc(Cl)ccc3c2=O)[C@@H]1O              pEC50               =      7.00
 4  CC1(C)Oc2ccc(S(=O)(=O)c3ccccc3)cc2[C@@H](n2oc3ccc(Cl)cc3c2=O)[C@@H]1O              pEC50               =      6.40
 5  CC1(C)Oc2ccc(C#N)cc2[C@@H](Nc2nc(=O)c3ccccc3[nH]2)[C@@H]1O (racemic)              pEC50               =      5.11
 6  N#Cc1ccc2c(c1)[C@@H](NC(=O)c1cccc(Cl)c1)[C@H](O)C1(CCS(=O)(=O)CC1)O2              pEC50               <      4.52
 7  CC1(C)Oc2ccc(C#N)cc2[C@@H](OP(=O)(c2ccccc2)c2ccccc2)[C@@H]1O              pEC50               <      4.52
 8  CC1(C)Oc2ccc(C#N)cc2[C@@H](Nc2nc3cc(Cl)ccc3s2)[C@@H]1O (racemic)              pEC50               =      4.84
 9  CC1(C)Oc2ccc(C(=O)c3ccccc3)cc2[C@@H](Nc2noc3ccc(Cl)cc23)[C@@H]1O              pEC50               =      4.69
10  CC1(C)Oc2ccc(C#N)cc2[C@@H](Oc2noc3ccc(Cl)cc23)[C@@H]1O              pEC50               =      5.15
11  CC1(C)Oc2ccc(Cl)cc2[C@@H](n2ccnc2-c2ccccc2)[C@@H]1O (racemic)              pEC50               <      4.52
12  COc1ccc(S(=O)(=O)c2ccc3c(c2)[C@@H](n2oc4cc(Cl)ccc4c2=O)[C@H](O)C(C)(C)O3)cc1              pEC50               =      5.13
13  CC1(C)Oc2ccc(C#N)cc2[C@@H](N2C(=O)c3ccncc3C2=O)[C@@H]1O              pEC50               =      5.22
14  CC1(C)Oc2ccc(S(=O)(=O)N3CCCCC3)cc2[C@@H](Oc2noc3cc(Cl)ccc23)[C@@H]1O              pEC50               <      4.52
15  CC1(C)Oc2ccc(C(=O)c3ccccc3)cc2[C@@H](Oc2noc3cc(Cl)ccc23)[C@@H]1O              pEC50               =      4.68
16  CC1(C)Oc2ccc(C#N)cc2[C@@H](n2nc(N)c3c(F)cccc32)[C@@H]1O              pEC50               =      4.79
17  CC1(C)Oc2ccc(C#N)cc2[C@@H](Nc2nc3cc(Cl)ccc3o2)[C@@H]1O (racemic)              pEC50               =      4.78
18  CC1(C)Oc2ccc(C#N)cc2[C@@H](S(=O)(=O)c2noc3cc(Cl)ccc23)[C@@H]1O (racemic)              pEC50               =      4.81
19  CC1(C)Oc2ccc(S(=O)(=O)c3ccc(Cl)cc3)cc2[C@@H](n2oc3cc(Cl)ccc3c2=O)[C@@H]1O              pEC50               =      5.10
20  CC1(C)Oc2ccc(C#N)cc2[C@@H](NP(C)(=O)c2ccccc2)[C@@H]1O (stereo partly drawn)              pEC50               =      4.73
21  CC1(C)Oc2ccc(S(=O)(=O)c3cccc(F)c3)cc2[C@@H](n2oc3cc(Cl)ccc3c2=O)[C@@H]1O              pEC50               =      5.71
22  CC1(C)C=C(n2ccnc2-c2ccccc2)c2cc(C#N)ccc2O1              pEC50               <      4.52
23  CC1(C)Oc2ccc(C#N)cc2[C@@H](n2nccc2-c2ccc(Cl)cc2)[C@@H]1O              pEC50               =      5.82
24  CC1(C)Oc2ccc(C#N)cc2[C@@H](Oc2nsc3cc([N+](=O)[O-])ccc23)[C@@H]1O              pEC50               =      5.39
25  CCN(CC)S(=O)(=O)c1ccc2c(c1)[C@@H](Nc1noc3c(Cl)cccc13)[C@H](O)C(C)(C)O2              pEC50               =      4.58
26  CC1(C)Oc2ccc(C#N)cc2[C@@H](Nc2nc3cc(F)ccc3s2)[C@@H]1O (racemic)              pEC50               =      5.07
27  CC1(C)Oc2ccc(C#N)cc2[C@@H](Oc2ncnc3ccccc23)[C@@H]1O              pEC50               =      5.71
28  CC1(C)Oc2ccc(Cl)cc2[C@@H](Oc2ccn(-c3ccccc3)n2)[C@@H]1O (racemic)              pEC50               <      4.52
29  CC1(C)Oc2ccncc2[C@@H](n2nccc2-c2ccc(Cl)cc2)[C@@H]1O (racemic)              pEC50               =      5.36

====

Target: KATP channels (Homo sapiens, UniProt O60706+Q14654)
Construct: TE671 human medulloblastoma cells were obtained from ATCC
Experiment: Potassium Channel Assay (FLIPR membrane potential, TE671 cells)
Conditions: TE671 human medulloblastoma cells, Membrane Potential Assay Dye, room temperature, hyperpolarization from KATP channel opening
pEC50: −log10 of the molar value.
Listing: pEC50 of selected molecules
measurement-label: pEC50

                              sample_smiles                          target_or_system  measurement_label  value_modifier  measured
0  COc1ccc2onc(O[C@@H]3c4cc(C#N)ccc4OC(C)(C)[C@H]3O)c2c1  KATP channels (Homo sapiens, UniProt O60706+Q14654)              pEC50               =      4.91
1  CC1(C)C=C(n2cncc2-c2ccc(Cl)cc2)c2cc(C#N)ccc2O1  KATP channels (Homo sapiens, UniProt O60706+Q14654)              pEC50               =      5.10
2  CC1(C)Oc2ccc(C#N)cc2[C@@H](Sc2nccc(C(F)(F)F)n2)[C@@H]1O  KATP channels (Homo sapiens, UniProt O60706+Q14654)              pEC50               <      4.52
3  CC1(C)Oc2ccc(C#N)cc2[C@@H](SC2=NCCc3ccccc32)[C@@H]1O  KATP channels (Homo sapiens, UniProt O60706+Q14654)              pEC50               <      4.52

====

Biological target: KATP channels (Homo sapiens, UniProt O60706+Q14654)
Construct: TE671 human medulloblastoma cells were obtained from ATCC
Assay: Potassium Channel Assay (FLIPR membrane potential, TE671 cells)
Settings: TE671 human medulloblastoma cells, Membrane Potential Assay Dye, room temperature, hyperpolarization from KATP channel opening
measurement-label: log10 EC50 (log10 of the value in µM)

                                    molecule                          target_or_system  measurement_label  measured
 0  CC1(C)Oc2ccc(C#N)cc2[C@@H](n2sc3ccccc3c2=O)[C@@H]1O  KATP channels (Homo sapiens, UniProt O60706+Q14654)         log10 EC50      1.15
 1  CC1(C)Oc2ccc(S(=O)(=O)c3cccc(F)c3)cc2[C@@H](Oc2noc3cc(Cl)ccc23)[C@@H]1O  KATP channels (Homo sapiens, UniProt O60706+Q14654)         log10 EC50      1.33
 2  CC1(C)Oc2ccc(Cl)cc2C(OC(=O)c2cccc(Cl)c2)C1O (racemic)  KATP channels (Homo sapiens, UniProt O60706+Q14654)         log10 EC50      1.42
 3  CC1(C)Oc2ccc(C#N)cc2[C@@H](Oc2noc3cc(Cl)ccc23)[C@@H]1O  KATP channels (Homo sapiens, UniProt O60706+Q14654)         log10 EC50     -0.59
 4  CC1(C)Oc2ccc(C#N)cc2[C@@H](Nc2nc3cc([N+](=O)[O-])ccc3s2)[C@@H]1O (racemic)  KATP channels (Homo sapiens, UniProt O60706+Q14654)         log10 EC50      0.49
 5  CC1(C)Oc2ccc(Cl)cc2[C@@H](OC2=NN(c3ccccc3)CC2)[C@@H]1O (racemic)  KATP channels (Homo sapiens, UniProt O60706+Q14654)         log10 EC50      1.22
 6  COc1ccc(S(=O)(=O)c2ccc3c(c2)[C@@H](Nc2noc4ccc(Cl)cc24)[C@H](O)C(C)(C)O3)cc1  KATP channels (Homo sapiens, UniProt O60706+Q14654)         log10 EC50      1.41
 7  CC1(C)Oc2ccc(S(=O)(=O)c3ccccc3)cc2[C@@H](Nc2noc3cc(Cl)ccc23)[C@@H]1O  KATP channels (Homo sapiens, UniProt O60706+Q14654)         log10 EC50      0.72
 8  CC1(C)Oc2ccncc2[C@@H](Oc2ccn(-c3ccc(Cl)cc3)n2)[C@@H]1O (racemic)  KATP channels (Homo sapiens, UniProt O60706+Q14654)         log10 EC50      1.42
 9  CC1(C)Oc2ccc(C#N)cc2[C@@H](N2C(=O)C(=O)c3cc(Cl)ccc32)[C@@H]1O  KATP channels (Homo sapiens, UniProt O60706+Q14654)         log10 EC50      0.56
10  CC1(C)Oc2ccc(C#N)cc2[C@@H](N2C(=O)c3ccc(Cl)cc3C2=O)[C@@H]1O  KATP channels (Homo sapiens, UniProt O60706+Q14654)         log10 EC50      0.50
11  CC1(C)Oc2ccc(C#N)cc2[C@@H](Oc2nsc3ccccc23)[C@@H]1O (racemic)  KATP channels (Homo sapiens, UniProt O60706+Q14654)         log10 EC50      1.21
12  CC1(C)Oc2ccc(C(=O)c3ccccc3)cc2[C@@H](n2oc3cc(Cl)ccc3c2=O)[C@@H]1O  KATP channels (Homo sapiens, UniProt O60706+Q14654)         log10 EC50      0.81
13  CC1(C)C=C(Oc2ccc(-c3ccccc3)nn2)c2cc(C#N)ccc2O1  KATP channels (Homo sapiens, UniProt O60706+Q14654)         log10 EC50      1.00
14  CC1(C)Oc2ccc(C#N)cc2[C@@H](SC2=NCCO2)[C@@H]1O (stereo in doubt)  KATP channels (Homo sapiens, UniProt O60706+Q14654)         log10 EC50      0.54
15  N#Cc1ccc2c(c1)[C@@H](Oc1noc3cc(Cl)ccc13)[C@H](O)C1(CCS(=O)(=O)CC1)O2  KATP channels (Homo sapiens, UniProt O60706+Q14654)         log10 EC50      1.47
16  CC1(C)C=C(n2nc(-c3ccc(Cl)cc3)ccc2=O)c2cc(C#N)ccc2O1  KATP channels (Homo sapiens, UniProt O60706+Q14654)         log10 EC50      1.30
17  CC1(C)Oc2ccc(C#N)cc2[C@@H](Oc2ccn(-c3ccccc3)n2)[C@@H]1O (racemic)  KATP channels (Homo sapiens, UniProt O60706+Q14654)         log10 EC50      0.42
18  CC1(C)Oc2ccc(C#N)cc2[C@@H](Nc2nc(=O)c3cc(Cl)ccc3[nH]2)[C@@H]1O [Compound 64]  KATP channels (Homo sapiens, UniProt O60706+Q14654)         log10 EC50      0.96
19  CC1(C)Oc2ccc(C#N)cc2[C@@H](Oc2noc3ccc(F)cc23)[C@@H]1O  KATP channels (Homo sapiens, UniProt O60706+Q14654)         log10 EC50      1.29
20  CC1(C)Oc2ccc(C#N)cc2[C@@H](n2nc(N)c3ccc(Br)cc32)[C@@H]1O  KATP channels (Homo sapiens, UniProt O60706+Q14654)         log10 EC50      0.64
